# system tested: T1, human IL-33 (R&D Systems, #3625-IL-010/CF) (human) (UniProt O95760)
# T1 sequence (looked up): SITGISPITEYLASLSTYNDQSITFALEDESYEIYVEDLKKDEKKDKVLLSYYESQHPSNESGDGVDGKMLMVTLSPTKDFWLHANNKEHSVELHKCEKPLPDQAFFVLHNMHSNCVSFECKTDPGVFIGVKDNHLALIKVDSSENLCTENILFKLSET
# protocol description: SPR Biacore T200, 37 C
assay metric: t1/2

binder="H4H9664P (antibody, from another filing, IgG4, V domains shown) VH: QVQLVESGGGVVQPGRSLRLSCAASGFTFSSYGLHWVRQSPGKGLEWVALISYDGSNKYYADSVKGRFTISRDNSKNTLYLQMNSLRPEDTAGYFCAKSLYTTSWYGGFDYWGQGTLVTVSS VL: DIQMTQSPSSVSASVGDRVTITCRASQGIRSWLAWYQQKPGKAPNLLIYAASSLQSGVPSRFSGSGSGTDFTLTISSLQPEDFATYYCQQANSFPPTFGPGTKVDIK" reported_measurement="22 min"
binder="H4H9675P (antibody, from another filing, IgG4, V domains shown) VH: EVQLVESGGNLEQPGGSLRLSCTASGFTFSRSAMNWVRRAPGKGLEWVSGISGSGGRTYYADSVKGRFTISRDNSKNTLYLQMNSLSAEDTAAYYCAKDSYTTSWYGGMDVWGHGTTVTVSS VL: DIQMTQSPSSVSASVGDRVTITCRASQGIFSWLAWYQQKPGKAPKLLIYAASSLQSGVPSRFSGSGSGTDFTLTISSLQPEDFAIYYCQQANSVPITFGQGTRLEIK" reported_measurement="15 min"

Consider the record given below.
Data request: Supply measured t1/2 of H4H9667P (antibody, from another filing, IgG4, V domains shown) VH: EVQLVESGGGLVQPGGSLRLSCAASGFTFSTYSMHWVRQAPGKGLEYVSTINNNGDTTYYADSVKGRFTISRDNSKNTLYLQLGSLRPEDMAVYYCARQTYTSSWYGGFDSWGQGTLVTVSS VL: DIQMTQSPSSVSASVGDRVTITCRASQGITSWLAWYQQKPGKAPKLLIYAASNLQSGVPSRFSGSGSGTDFTLTITSLQPEDFATYYCQQANSLPFTFGPGTKVDIK in your reply.
Data returned: 23 min
